# tested-system: Adenosine receptor A1 (Homo sapiens)
# assay-details: Displacement of [3H]DPCPX from human adenosine A1 receptor expressed in CHO cells at 10 uM after 120 mins by scintillation counting

>  <molecule>
Nc1sc(-c2ccccc2)c(CN(C2CCCCC2)C2CCCCC2)c1C(=O)c1ccc(Cl)cc1

>  <unit-label>
%

>  <inhibition>
6

$$$$
>  <molecule>
CC(C)N(Cc1c(-c2ccccc2)sc(N)c1C(=O)c1ccc(Cl)cc1)C(C)C

>  <unit-label>
%

>  <inhibition>
5

$$$$
>  <molecule>
Nc1scc(CN2CCn3c(cc4cc(Cl)ccc43)C2)c1C(=O)c1ccc(Cl)cc1

>  <unit-label>
%

>  <inhibition>
4

$$$$
>  <molecule>
CN(Cc1c(-c2ccccc2)sc(N)c1C(=O)c1ccc(Cl)cc1)C(C)(C)C

>  <unit-label>
%

>  <inhibition>
5

$$$$
>  <molecule>
Nc1scc(CN2CCC3(CC2)Oc2ccccc2O3)c1C(=O)c1ccc(Cl)cc1

>  <unit-label>
%

>  <inhibition>
1

$$$$
>  <molecule>
C=CCN(CC=C)Cc1c(-c2ccccc2)sc(N)c1C(=O)c1ccc(Cl)cc1

>  <unit-label>
%

>  <inhibition>
3

$$$$
>  <molecule>
Nc1scc(CN2CCN3c4ccccc4CC3C2)c1C(=O)c1ccc(Cl)cc1 (stereo unspecified)

>  <unit-label>
%

>  <inhibition>
0

$$$$
>  <molecule>
CCCCN(C)Cc1c(-c2ccccc2)sc(N)c1C(=O)c1ccc(Cl)cc1

>  <unit-label>
%

>  <inhibition>
1

$$$$
>  <molecule>
CCN(Cc1csc(N)c1C(=O)c1ccc(Cl)cc1)c1ccccc1

>  <unit-label>
%

>  <inhibition>
0

$$$$
>  <molecule>
Nc1scc(COc2ccc(F)cc2)c1C(=O)c1ccc(Cl)cc1

>  <unit-label>
%

>  <inhibition>
1

$$$$
>  <molecule>
Nc1scc(CN2CCc3ccccc3C2)c1C(=O)c1ccc(Cl)cc1

>  <unit-label>
%

>  <inhibition>
0

$$$$
>  <molecule>
CC(C)(C)c1ccc2c(c1)OC1(CCN(Cc3csc(N)c3C(=O)c3ccc(Cl)cc3)CC1)O2

>  <unit-label>
%

>  <inhibition>
1

$$$$
>  <molecule>
Nc1scc(CN2CCc3[nH]c4ccc(Cl)cc4c3C2)c1C(=O)c1ccc(Cl)cc1

>  <unit-label>
%

>  <inhibition>
2

$$$$
>  <molecule>
CN(Cc1csc(N)c1C(=O)c1ccc(Cl)cc1)c1ccc(Cl)cc1

>  <unit-label>
%

>  <inhibition>
8

$$$$
>  <molecule>
CN(Cc1csc(N)c1C(=O)c1ccc(Cl)cc1)c1ccc(F)cc1

>  <unit-label>
%

>  <inhibition>
3

$$$$
>  <molecule>
Cn1c2c(c3cc(Cl)ccc31)CN(Cc1csc(N)c1C(=O)c1ccc(Cl)cc1)CC2

>  <unit-label>
%

>  <inhibition>
1

$$$$
>  <molecule>
CN(Cc1csc(N)c1C(=O)c1ccc(Cl)cc1)c1ccc(C(F)(F)F)cc1

>  <unit-label>
%

>  <inhibition>
3

$$$$
>  <molecule>
CC(C)N(Cc1csc(N)c1C(=O)c1ccc(Cl)cc1)C(C)C

>  <unit-label>
%

>  <inhibition>
1

$$$$
>  <molecule>
CC(C)c1ccc(OCc2csc(N)c2C(=O)c2ccc(Cl)cc2)cc1

>  <unit-label>
%

>  <inhibition>
3

$$$$
>  <molecule>
Nc1scc(CN2CCN3c4ccc(Cl)cc4CC3C2)c1C(=O)c1ccc(Cl)cc1 (stereo unspecified)

>  <unit-label>
%

>  <inhibition>
1

$$$$
>  <molecule>
Cc1sc(N)c(C(=O)c2cccc(C(F)(F)F)c2)c1C

>  <unit-label>
%

>  <inhibition>
0

$$$$
